tested on: Pseudomonas aeruginosa; assay: Antibacterial activity against Pseudomonas aeruginosa MTCC 741 at 10 ug/well after 24 hr by agar well diffusion method; type: functional; conditions: MTCC 741, 24 h, read-out: DIZ
Label rule, in plain words: zone of inhibition at 10 µg/disc of 4 mm and up is yes (1), under 4 mm is no (0).

compound: Cc1ccc(Nc2ccc3c(C(=O)O)cc(-c4ccccc4)nc3c2)cc1
classAssignment: no (0)

From here, focus on the item given below.
Exam item: decide whether the reported zone of inhibition at 10 µg/disc for "NC(=S)Nc1ccc2c(C(=O)O)cc(-c3ccccc3)nc2c1" is at least 4 mm.
yes (1)

----------
system: Pseudomonas oleovorans; experiment: Antibacterial activity against Pseudomonas oleovorans MTCC 617 at 10 ug/well after 24 hr by agar well diffusion method; assay type: functional; details: Ectopseudomonas oleovorans, MTCC 617, 24 h; read-out: DIZ
Cut-off 10 mm on zone of inhibition at 10 µg/disc, inclusive. At or above means TRUE; below means FALSE.

compound: Cc1ccc(Nc2ccc3c(C(=O)O)cc(-c4ccccc4)nc3c2)cc1
classAssignment: FALSE

Item "O=C(O)c1cc(-c2ccccc2)nc2cc(Nc3ccc([N+](=O)[O-])cc3)ccc12" with zone of inhibition at 10 µg/disc of 10 mm or above?
FALSE

Can "O=C(O)c1cc(-c2ccccc2)nc2cc(N3CCNCC3)ccc12" be said to have zone of inhibition at 10 µg/disc at or above 10 mm?
TRUE

Would you say "NS(=O)(=O)c1ccc(Nc2ccc3c(C(=O)O)cc(-c4ccccc4)nc3c2)cc1" shows zone of inhibition at 10 µg/disc at minimum 10 mm?
TRUE

Item "COc1ccc(Nc2ccc3c(C(=O)O)cc(-c4ccccc4)nc3c2)cc1" with zone of inhibition at 10 µg/disc of 10 mm or above?
FALSE

Given the entry "NC(=S)Nc1ccc2c(C(=O)O)cc(-c3ccccc3)nc2c1" , answer whether its zone of inhibition at 10 µg/disc meets or surpasses 10 mm.
FALSE

Entry "O=C(O)c1cc(-c2ccccc2)nc2cc(Nc3ccccc3)ccc12" : is its zone of inhibition at 10 µg/disc no less than 10 mm?
TRUE

Identify whether the reported zone of inhibition at 10 µg/disc of the following compound is 10 mm or greater: "O=C(O)c1cc(-c2ccccc2)nc2cc(Nc3nccs3)ccc12"
TRUE

Confirm if zone of inhibition at 10 µg/disc reported for the compound CC1COc2c(N3CCN(C)CC3)c(F)cc3c(=O)c(C(=O)O)cn1c23 (stereo not given) is 10 mm or above.
TRUE

Hello, I need to know if "NC(=O)Nc1ccc2c(C(=O)O)cc(-c3ccccc3)nc2c1" has measured zone of inhibition at 10 µg/disc not below 10 mm. Thanks!
FALSE

----------
test system: Bacillus cereus; test: Antibacterial activity against Bacillus cereus MTCC 430 at 10 ug/well after 24 hr by agar well diffusion method; type: functional; settings: MTCC 430, 24 h, read-out: DIZ
assayEndpoint: zone of inhibition at 10 µg/disc (mm)
Provide only the numeric value, understood in mm.

Below, 2 compounds whose answers are already recorded.
compound: O=C(O)c1cc(-c2ccccc2)nc2cc(Nc3ccccc3)ccc12
assayedTarget: Bacillus cereus
assayEndpoint: zone of inhibition at 10 µg/disc
measurementUnit: mm
recordedNumber: 10
--
compound: CC1COc2c(N3CCN(C)CC3)c(F)cc3c(=O)c(C(=O)O)cn1c23 (stereo not given) [OFLOXACIN]
assayedTarget: Bacillus cereus
assayEndpoint: zone of inhibition at 10 µg/disc
measurementUnit: mm
recordedNumber: 16

Notebook entry, Bacillus cereus assay: zone of inhibition at 10 µg/disc of "O=C(O)c1cc(-c2ccccc2)nc2cc(Nc3nccs3)ccc12" = ?
13

Look up zone of inhibition at 10 µg/disc with Bacillus cereus for this compound: "O=C(O)c1cc(-c2ccccc2)nc2cc(Nc3ccc([N+](=O)[O-])cc3)ccc12"
9

Please provide the recorded zone of inhibition at 10 µg/disc for "Cc1ccc(Nc2ccc3c(C(=O)O)cc(-c4ccccc4)nc3c2)cc1" , tested on Bacillus cereus.
6

What is its zone of inhibition at 10 µg/disc for Bacillus cereus? Entry: "O=C(O)c1cc(-c2ccccc2)nc2cc(Nn3cnnc3)ccc12"
3

Item "O=C(O)c1cc(-c2ccccc2)nc2cc(N3CCNCC3)ccc12" with Bacillus cereus - zone of inhibition at 10 µg/disc?
5

What is its zone of inhibition at 10 µg/disc for Bacillus cereus? Entry: "NC(=O)Nc1ccc2c(C(=O)O)cc(-c3ccccc3)nc2c1"
10

// map "NS(=O)(=O)c1ccc(Nc2ccc3c(C(=O)O)cc(-c4ccccc4)nc3c2)cc1" to recorded zone of inhibition at 10 µg/disc (system: Bacillus cereus)
5

Item "O=C(O)c1cc(-c2ccccc2)nc2cc(Nc3ccncc3)ccc12" with Bacillus cereus - zone of inhibition at 10 µg/disc?
5

----------
test system: Bacillus cereus; test: Antibacterial activity against Bacillus cereus MTCC 430 at 10 ug/well after 24 hr by agar well diffusion method; format: functional; settings: MTCC 430, 24 h, read-out: DIZ
# zone of inhibition at 10 µg/disc per record follows
Unit mm implied. Number only.

testSmiles: O=C(O)c1cc(-c2ccccc2)nc2cc(Cl)ccc12
measurementUnit: mm
recordedNumber: 4

Fill blank: measured zone of inhibition at 10 µg/disc of the compound "NC(=S)Nc1ccc2c(C(=O)O)cc(-c3ccccc3)nc2c1" is ____.
5

Looking for the measured zone of inhibition at 10 µg/disc of "O=C(O)CNc1ccc2c(C(=O)O)cc(-c3ccccc3)nc2c1" , can you help?
4

Query (compound): "COc1ccc(Nc2ccc3c(C(=O)O)cc(-c4ccccc4)nc3c2)cc1" ; field requested: zone of inhibition at 10 µg/disc
4

----------
// reported zone of inhibition at 10 µg/disc for each item listed
system: Klebsiella pneumoniae; assay: Antibacterial activity against Klebsiella pneumoniae MTCC 109 at 10 ug/well after 24 hr by agar well diffusion method; assay type: functional; settings: MTCC 109, 24 h, read-out: DIZ
Only the number, expressed in mm, is required.

Solved cases (4 shown):
compound: CC1COc2c(N3CCN(C)CC3)c(F)cc3c(=O)c(C(=O)O)cn1c23 (stereo not given)
measurementUnit: mm
zone of inhibition at 10 µg/disc: 19
--
compound: O=C(O)c1cc(-c2ccccc2)nc2cc(Nc3nccs3)ccc12
measurementUnit: mm
zone of inhibition at 10 µg/disc: 5
--
compound: COc1ccc(Nc2ccc3c(C(=O)O)cc(-c4ccccc4)nc3c2)cc1
measurementUnit: mm
zone of inhibition at 10 µg/disc: 3
--
compound: Cc1ccc(Nc2ccc3c(C(=O)O)cc(-c4ccccc4)nc3c2)cc1
measurementUnit: mm
zone of inhibition at 10 µg/disc: 3

Let us examine a further case.
Which zone of inhibition at 10 µg/disc is reported with Klebsiella pneumoniae for this entry: "O=C(O)CNc1ccc2c(C(=O)O)cc(-c3ccccc3)nc2c1" ?
5

----------
tested on: Klebsiella pneumoniae; assay: Antibacterial activity against Klebsiella pneumoniae MTCC 109 at 10 ug/well after 24 hr by agar well diffusion method; type: functional; details: MTCC 109, 24 h, read-out: DIZ
Entries annotated with measured zone of inhibition at 10 µg/disc
API: value field is a number in mm; no unit string.

testSmiles: O=C(O)c1cc(-c2ccccc2)nc2cc(Cl)ccc12
measurementUnit: mm
recordedNumber: 3

testSmiles: O=C(O)c1cc(-c2ccccc2)nc2cc(Nc3ccccc3)ccc12
measurementUnit: mm
recordedNumber: 5

Reported zone of inhibition at 10 µg/disc for "O=C(O)c1cc(-c2ccccc2)nc2cc(N3CCNCC3)ccc12" : what is it?
6

Which zone of inhibition at 10 µg/disc value is on record for "NC(=O)Nc1ccc2c(C(=O)O)cc(-c3ccccc3)nc2c1" ?
6

Return reported zone of inhibition at 10 µg/disc; argument: "O=C(O)c1cc(-c2ccccc2)nc2cc(Nn3cnnc3)ccc12"
4

# query: zone of inhibition at 10 µg/disc of entry "O=C(O)c1cc(-c2ccccc2)nc2cc(Nc3ccncc3)ccc12"
4

----------
system: Pseudomonas oleovorans; test: Antibacterial activity against Pseudomonas oleovorans MTCC 617 at 10 ug/well after 24 hr by agar well diffusion method; assay type: functional; conditions: Ectopseudomonas oleovorans, MTCC 617, 24 h; read-out: DIZ
Reported values of zone of inhibition at 10 µg/disc for individual entries
The reply should be a number in mm, with the unit left off.

testSmiles: O=C(O)CNc1ccc2c(C(=O)O)cc(-c3ccccc3)nc2c1
assayedTarget: Pseudomonas oleovorans
measurementUnit: mm
zone of inhibition at 10 µg/disc: 8
//
testSmiles: O=C(O)c1cc(-c2ccccc2)nc2cc(Cl)ccc12
assayedTarget: Pseudomonas oleovorans
measurementUnit: mm
zone of inhibition at 10 µg/disc: 6
//
testSmiles: O=C(O)c1cc(-c2ccccc2)nc2cc(Nc3ccncc3)ccc12
assayedTarget: Pseudomonas oleovorans
measurementUnit: mm
zone of inhibition at 10 µg/disc: 4

Shift focus to the following entry.
Would you mind telling me what zone of inhibition at 10 µg/disc value was observed for "O=C(O)c1cc(-c2ccccc2)nc2cc(Nn3cnnc3)ccc12" ?
4
